Ref: patent US20220306653A1

# Tested on: MOLP-8 human multiple myeloma cell line
# experiment-description: MOLP8 Caspase-Glo 3/7 luminescent assay
# Type: cell-based
# test-parameters: Homo sapiens, MOLP-8, 2 h, 2 hours incubation; averaged values over all runs on all batches
// classify: if (AC50 < 500 nM) Criterion met else Criterion not met

- compound: "Cc1c(C(=O)O)n2c3ccc(Cl)c(c13)-c1c(nn(C)c1C)CN(C(C)C)Cc1cc(n(C)n1)CSc1cc(c3ccccc3c1)OCCC2"
  system: "MOLP-8 human multiple myeloma cell line"
  label-value: "Criterion met"
- compound: "CCn1nc2cc1CSc1cc(c3ccccc3c1)OCCCn1c(C(=O)O)c(C)c3c(c(Cl)ccc31)-c1c(nn(C)c1C)CSC2 (single isomer, unassigned)"
  system: "MOLP-8 human multiple myeloma cell line"
  label-value: "Criterion met"
- compound: "Cc1c(C(=O)O)n2c3ccc(Cl)c(c13)-c1c(nn(C)c1C)CSCc1cc([nH]n1)CSc1cc(c3ccccc3c1)OCCC2 (single isomer, unassigned)"
  system: "MOLP-8 human multiple myeloma cell line"
  label-value: "Criterion met"
- compound: "Cc1c(C(=O)O)n2c3ccc(Cl)c(c13)-c1c(nn(C)c1C)CN(C)Cc1cc(n(C)n1)CSc1cc(c3ccccc3c1)OCCC2 (single isomer, unassigned)"
  system: "MOLP-8 human multiple myeloma cell line"
  label-value: "Criterion not met"
- compound: "Cc1c(C(=O)O)n2c3ccc(Cl)c(c13)-c1c(nn(C)c1C)CSCc1cc(nn1C(C)C)CSc1cc(c3ccccc3c1)OCCC2 (single isomer, unassigned)"
  system: "MOLP-8 human multiple myeloma cell line"
  label-value: "Criterion not met"
- compound: "Cc1c(C(=O)O)n2c3ccc(Cl)c(c13)-c1c(nn(C)c1C)CNCc1cc(n(C)n1)CSc1cc(c3ccccc3c1)OCCC2"
  system: "MOLP-8 human multiple myeloma cell line"
  label-value: "Criterion not met"

Could you now consider this next compound?
Strictly below 500 nM: is that where AC50 of CCn1nc2cc1CSCc1nn(C)c(C)c1-c1c(Cl)ccc3c1c(C)c(C(=O)O)n3CCCOc1cc(cc3ccccc13)SC2 (single isomer, unassigned) sits?
Criterion not met
